# ASSAY_NOTES: clinical
# STATED_CONDITIONS: human, in vivo, po
MEASURED_ENDPOINT: half-life

Consider CC(=O)Nc1ccc(C(=O)Nc2ccccc2N)cc1 [CI-994] . Its measured half-life is ~15 h
